Reference for the values: patent US10604535B2

Molecular target: GST-hRIPK1 (8-327) (Homo sapiens (Human), UniProt Q13546)
Sequence (Q13546 8-327): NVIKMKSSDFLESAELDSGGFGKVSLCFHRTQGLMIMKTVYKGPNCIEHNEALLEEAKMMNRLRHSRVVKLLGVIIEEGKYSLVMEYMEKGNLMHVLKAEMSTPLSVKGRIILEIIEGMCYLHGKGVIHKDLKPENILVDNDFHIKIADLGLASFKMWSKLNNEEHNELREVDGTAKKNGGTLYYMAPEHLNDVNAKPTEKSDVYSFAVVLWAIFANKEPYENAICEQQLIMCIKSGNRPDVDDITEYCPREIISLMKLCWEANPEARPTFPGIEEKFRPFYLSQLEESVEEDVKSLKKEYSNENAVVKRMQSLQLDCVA
Test: Fluorescent Polarization Binding (FP Binding) assay
pIC50: −log10 of the molar value.
property measured: pIC50

molecule: CN1C(=O)[C@@H](NC(=O)c2nn(Cc3ccccc3)cc2F)CCc2c1cnn2C [Example 114A]
property measured: pIC50
result value: 6.00 to 10.00
//
molecule: Cc1c(F)c(C(=O)N[C@H]2COc3ccccc3NC2=O)nn1Cc1ccccc1
property measured: pIC50
result value: 6.00 to 10.00
//
molecule: CN1C(=O)[C@@H](NC(=O)c2cc(C3(c4ccccc4)CC3)on2)COc2ccccc21
property measured: pIC50
result value: 6.00 to 10.00

For the molecule shown here, O=C(NC1COc2cccnc2-n2ccnc21)c1nn(Cc2ccccc2)cc1F (stereo in doubt) [Example 154A] , give the reported pIC50.
< 5.52

Proceed to CN1C(=O)[C@@H](NC(=O)c2nn(Cc3cccc(C#N)c3)cc2F)COc2cccnc21
6.00 to 10.00

Proceed to CN1C(=O)[C@@H](NC(=O)c2nnc(C3(c4ccccc4)CC3)o2)CCc2cccnc21 [Example 145A]
6.00 to 10.00

Proceed to CN1C(=O)[C@@H](NC(=O)c2ncc(C3(c4ccccc4)CC3)[nH]2)COc2cccnc21
5.00 to 6.00

Proceed to Cn1ncc2c1CC[C@@H](NC(=O)c1nnc(Cc3ccccc3)[nH]1)C(=O)N2 [Example 118A]
< 5.52

----------
Biological target: GST-hRIPK1 (8-327) (Homo sapiens (Human))
Test: Fluorescent Polarization Binding (FP Binding) assay
pIC50: −log10 of the molar value.
property measured: pIC50

Solved cases (6 shown):
molecule: O=C(N[C@H]1COc2cccnc2NC1=O)c1nnc(C2CCc3ccccc32)[nH]1 (single isomer, unassigned) [Example 102B]
pIC50: 6.00 to 10.00

molecule: CN1C(=O)[C@@H](NC(=O)c2cc(Oc3ccc(F)cc3F)ccn2)CCc2cccnc21 [Example 121B]
pIC50: 6.00 to 10.00

molecule: CN1C(=O)[C@@H](NC(=O)c2nnc(Cc3ccccc3)o2)C2(CC2)Oc2cccnc21 [Example 160A]
pIC50: 6.00 to 10.00

molecule: CN1C(=O)[C@H](NC(=O)c2cc(Oc3ccccc3F)ccn2)[C@@H]2C[C@@H]2c2cccnc21 [Example 100B]
pIC50: 6.00 to 10.00

molecule: O=C(N[C@@H]1C(=O)Nc2ncccc2[C@@H]2C[C@H]12)c1nnc(Cc2ccccc2)[nH]1 [Example 110B]
pIC50: 6.00 to 10.00

molecule: C[C@H]1Oc2cccnc2NC(=O)[C@H]1NC(=O)c1nnc(Cc2ccccc2)[nH]1
pIC50: 6.00 to 10.00

Continue with the next molecule.
Look up pIC50 with GST-hRIPK1 (8-327) (Homo sapiens (Human)) for this molecule: O=C(N[C@H]1CCc2ccccc2-n2ccnc21)c1cc(Oc2ccccc2F)cnn1
6.00 to 10.00

----------
Molecular target: GST-hRIPK1 (8-327) (Homo sapiens (Human))
Assay: Fluorescent Polarization Binding (FP Binding) assay
pIC50: −log10 of the molar value.
Recorded pIC50 values for a group of compounds are listed next.

compound: O=C(NC1COc2cccnc2-n2ccnc21)c1nn(Cc2ccccc2)cc1F (stereo in doubt) [Example 154B]
target or system: GST-hRIPK1 (8-327) (Homo sapiens (Human))
result value: 6.00 to 10.00
//
compound: CN1C(=O)[C@@H](NC(=O)c2nn(Cc3cc(F)cc(C#N)c3)cc2F)COc2cccnc21 [Example 130]
target or system: GST-hRIPK1 (8-327) (Homo sapiens (Human))
result value: 6.00 to 10.00
//
compound: CN1C(=O)[C@@H](NC(=O)c2cc(C#N)n(Cc3ccccc3)n2)COc2cccnc21 [Example 158]
target or system: GST-hRIPK1 (8-327) (Homo sapiens (Human))
result value: 6.00 to 10.00
//
compound: CN1C(=O)[C@@H](NC(=O)c2nnc(Cc3ccccc3)o2)[C@H]2C[C@H]2c2nccnc21 [Example 177A]
target or system: GST-hRIPK1 (8-327) (Homo sapiens (Human))
result value: 6.00 to 10.00
//
compound: CN1C(=O)[C@@H](NC(=O)c2nn(Cc3cccc(C#N)c3)cc2F)CCc2cccnc21 [Example 152B]
target or system: GST-hRIPK1 (8-327) (Homo sapiens (Human))
result value: 6.00 to 10.00
//
compound: CN1C(=O)[C@H](NC(=O)c2nnc(Cc3ccccc3)o2)CCc2cccnc21 [Example 148B]
target or system: GST-hRIPK1 (8-327) (Homo sapiens (Human))
result value: 5.00 to 6.00
//
compound: C[C@H]1Oc2cccnc2N(C)C(=O)[C@H]1NC(=O)c1nnc(C2(c3ccccc3)CC2)o1 [Example 138]
target or system: GST-hRIPK1 (8-327) (Homo sapiens (Human))
result value: 6.00 to 10.00
//
compound: CN1C(=O)[C@H](NC(=O)c2nnc(Cc3ccccc3)s2)[C@@H]2C[C@@H]2c2cccnc21 [Example 120B]
target or system: GST-hRIPK1 (8-327) (Homo sapiens (Human))
result value: < 5.52
//
compound: Cc1c(F)c(C(=O)N[C@H]2COc3ccccc3N(C)C2=O)nn1Cc1ccccc1 [Example 6]
target or system: GST-hRIPK1 (8-327) (Homo sapiens (Human))
result value: 6.00 to 10.00
//
compound: CN1C(=O)[C@@H](NC(=O)c2nn(Cc3cncc(C#N)c3)cc2F)COc2cccnc21 [Example 168]
target or system: GST-hRIPK1 (8-327) (Homo sapiens (Human))
result value: 6.00 to 10.00

For the compound shown here, C[C@H]1Oc2cccnc2N(C)C(=O)[C@H]1NC(=O)c1nn(Cc2ccc(F)cc2)cc1F [Example 143] , give the reported pIC50.
6.00 to 10.00

Proceed to CN1C(=O)[C@@H](NC(=O)c2cc(F)n(Cc3ccc(F)cc3)n2)COc2cccnc21 [Example 166]
6.00 to 10.00
